# measurement-description: antimalarial activity against Dd2 strain (AID 2302);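 note: 0% = DMSO untreated growth and 100% = chloroquine plus artemisinin killed control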
# measurement-setup: P. falciparum Dd2 in RBCs, LDH growth readout, 72 h; at 2 µM; stronger effect = higher value
Collected growth inhibition values appear next to each entry.
All answers are understood in %, so give the number only.

For orientation, consider the following solved cases.
>>> reported_measurement("COc1cccc2cc(C(=O)N[C@@H](CC(C)C)C(=O)N[C@H](/C=N/N(C)C(=O)OC(C)(C)C)Cc3ccccc3)oc12")
89
>>> reported_measurement("CC[C@H]1CN(C/C=C/c2ccc(OC)cc2)CC[C@H]1CCCc1ccnc2ccc(O)cc12")
72
>>> reported_measurement("CCNc1cc(C(=O)N[C@@H](Cc2ccccc2)[C@H](O)CNCCc2cccc3ccccc23)cc(N2CCCC2=O)c1")
39

Request: Looking for the measured growth inhibition of Cc1nc2ccc3ccc(CNc4ccc5c(c4)CN([C@@H](CCC(=O)O)C(=O)O)C5=O)cc3c2c(=O)[nH]1 , can you help?
Response: 95

---

# measurement-description: antimalarial activity against Dd2 strain (AID 2302);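 note: 0% = DMSO untreated growth and 100% = chloroquine plus artemisinin killed control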
# measurement-setup: P. falciparum Dd2 in RBCs, LDH growth readout, 72 h; at 2 µM; stronger effect = higher value
Class criterion met: growth inhibition at least 80%. Class criterion not met: growth inhibition below 80%.

A selection of reference data follows.
>>> category("COc1ccc2nccc([C@@H](O)CN3CCC(NC(=O)C(c4cc5ccccc5o4)N4CCN(c5ccc(F)cc5)CC4)CC3)c2c1 (some centres undefined)")
"criterion met"
>>> category("Cc1cccc2[nH]c(-c3ccc(-c4ccc(NC(=O)Nc5ccc(Cl)c(Cl)c5)cc4)cc3)nc12")
"criterion met"
>>> category("CN(/N=C/C=C/c1ccc(Cl)cc1)c1nc(NCCc2ccc(O)cc2)nc(N2CCNCC2)n1")
"criterion not met"
>>> category("COc1ccc2ccccc2c1CCCCN1CCN(CC(c2ccc(F)cc2)N2CCC(N3CCCC3)CC2)CC1 (centres undefined)")
"criterion not met"

Request: Decide: is the reported value of growth inhibition for CCCCCn1c(Sc2ccc(C#N)c([N+](=O)[O-])c2)nnc1-c1ccc(Cl)cc1 equal to or greater than 80%?
Response: criterion not met

Request: Could you tell me if the measured growth inhibition of N#Cc1ccc(N2CCN(Cc3ccc(-c4ccc(-c5nc6ccc(C(F)(F)F)cc6[nH]5)cc4)cc3)CC2)nc1 reaches 80% or more?
Response: criterion met

---

# measurement-description: antimalarial activity against Dd2 strain (AID 2302);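 note: 0% = DMSO untreated growth and 100% = chloroquine plus artemisinin killed control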
# measurement-setup: P. falciparum Dd2 in RBCs, LDH growth readout, 72 h; at 2 µM; stronger effect = higher value
Activity calls are given as the source filed them.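 How the source made its calls: active means growth inhibition above 50% at the single 2 µM test dose, taken to imply half-maximal potency below 2 µM; inactive means the rest.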
measured-quantity: growth inhibition

Answered cases to consult:
>>> reported_measurement("COc1ccc(NC(=O)c2ccc(-c3nc(-c4cccc(C(F)(F)F)c4)cs3)cc2)cc1N1CCN(C)CC1")
"59% (active)"
>>> reported_measurement("CCc1cccc(OCC2CCCN(c3ccc(C(=O)NC4CC4)cn3)C2)c1 (stereo not given)")
"73% (active)"
>>> reported_measurement("c1ccc(N2CCN(c3cc(-c4cccnc4)nc(-c4ccncc4)n3)CC2)nc1")
"22% (inactive)"

Request: Query (compound): O=S(=O)(Nc1cc2c(cc1OCc1ccccc1)CCN(C1CCC1)CC2)c1ccc(-c2ccc(Cl)cc2)cc1 ; field requested: growth inhibition
Response: 12% (inactive)

Request: Recorded growth inhibition of Cc1ccc(-c2[nH]n3c(=O)c4c(nc3c2C)CCCC4)cc1 , please.
Response: 87% (active)

---

# measurement-description: inhibition of 3D7 malaria parasite growth – strain 3D7 (AID 2306);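 note: 0% = DMSO wells and 100% = chloroquine plus artemisinin control wells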
# measurement-setup: P. falciparum 3D7 erythrocytic growth, LDH absorbance, 72 h; at 2 µM; stronger effect = higher value
Calls of active or inactive are those of the source. The rule behind the calls is not given here.
measured-quantity: growth inhibition

Completed entries (count: 4):
>>> reported_measurement("COc1ccc2nccc([C@@H](O)CN3CCC(NCc4ccc5sc(=O)[nH]c5c4)CC3)c2c1")
"98% (active)"
>>> reported_measurement("CCCCN(CCCC)C(=NCCCCCCN=C(NC(N)=NCc1ccc(Cl)c(Cl)c1)N(CCCC)CCCC)NC(N)=NCc1ccc(Cl)c(Cl)c1")
"100% (active)"
>>> reported_measurement("COc1cc(Nc2nccn3c(-c4ccsc4)cnc23)cc(OC)c1OC")
"93% (active)"
>>> reported_measurement("COc1cc2nc(NCC3CCN(C(=O)c4ccc(-c5ccc(C(=O)N(C)C)cc5C)cc4)CC3)nc(N)c2cc1OC")
"101% (active)"

Request: May I ask what growth inhibition has been recorded for CC(Cc1ccc(CN2CCN(Cc3ccccc3)CC2)cc1)NCC(O)c1cccc(C(F)(F)F)c1 (centres undefined) ?
Response: 97% (active)

Request: I would be grateful if you could share the reported growth inhibition for CC(C)(C)c1ccc(-c2csc(NC(=O)CC(c3ccccc3)c3ccccc3)n2)cc1 .
Response: 86% (active)

Request: Which growth inhibition value is on record for CN1CCCC(CN2CCN(Cc3cccc(-c4ccc(-c5nc6ccccc6[nH]5)cc4)c3)CC2)C1 (centres undefined) ?
Response: 100% (active)

Request: Tell me the measured growth inhibition of CCN(CC)CCN(Cc1ccc(-c2ccc(C(F)(F)F)cc2)cc1)C(=O)Cn1c(CCc2ccc(F)cc2)nc(=O)c2ccccc21 , please.
Response: 97% (active)

Request: If you can, please state the reported growth inhibition value of Nc1nc(N)c2c(CCc3ccc4ccccc4c3)cccc2n1 .
Response: 102% (active)

---

# target-under-test: L-lactate dehydrogenase (Plasmodium falciparum (isolate CDC / Honduras)) (UniProt Q27743)
# Sequence (Q27743 whole entry, looked up): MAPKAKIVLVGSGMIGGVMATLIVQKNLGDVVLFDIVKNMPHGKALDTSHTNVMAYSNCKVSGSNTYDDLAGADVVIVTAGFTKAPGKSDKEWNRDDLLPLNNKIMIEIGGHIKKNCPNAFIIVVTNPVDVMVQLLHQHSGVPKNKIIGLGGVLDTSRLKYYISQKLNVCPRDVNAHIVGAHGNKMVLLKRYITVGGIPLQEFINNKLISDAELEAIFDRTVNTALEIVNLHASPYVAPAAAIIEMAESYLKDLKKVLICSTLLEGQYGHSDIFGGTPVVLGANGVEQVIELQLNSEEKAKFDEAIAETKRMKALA
# measurement-description: PfLDH activity inhibition – cell lysate, 3D7 strain, counter-screen for P. falciparum growth inhibition project (AID 2304);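 note: 0% = vehicle and 100% = reference inhibitor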
# measurement-setup: P. falciparum 3D7 crude extract, LDH APAD/NBT absorbance; at 2 µM; stronger effect = higher value
Each item that follows carries a reported inhibition.
# value in %; strip the unit string

>>> reported_measurement("CC1(C)N=C(N)N=C(N)N1OCc1cc(Cl)c(CON2C(N)=NC(N)=NC2(C)C)cc1Cl")
3
>>> reported_measurement("O=[N+]([O-])c1cccc(-c2ccc(C=NNc3cc(N4CCCC4)nc(N4CCCC4)n3)o2)c1")
0
>>> reported_measurement("CN(CCCCCNC(=O)/C=C/c1ccc(Cl)c(Cl)c1)CCCCc1c[nH]c2ccccc12")
2
>>> reported_measurement("c1cc2nc(CCc3nc4ccc(C5=N[C@H]6CCCC[C@H]6N5)cc4[nH]3)[nH]c2cc1C1=N[C@@H]2CCCC[C@@H]2N1")
-2

# ---- query compound ----
Request: Item under review: Cc1nc(-c2nc(NCCc3ccncc3)ncc2-c2ccsc2)sc1C . Reported inhibition?
Response: -1

---

# measurement-description: antimalarial activity against Dd2 strain (AID 2302);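 note: 0% = DMSO untreated growth and 100% = chloroquine plus artemisinin killed control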
# measurement-setup: P. falciparum Dd2 in RBCs, LDH growth readout, 72 h; at 2 µM
Calls of active or inactive are those of the source.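 The calls were made as follows: active = growth inhibition above 50% at the single 2 µM test dose, taken to imply half-maximal potency below 2 µM; inactive = the rest.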
// one of True for active, False for inactive, no free text

Answered examples (5):
>>> category("COc1cc(-c2ccc3c(-c4ccc(C(=O)N5CCN(C)CC5)cc4)[nH]nc3n2)cc(OC)c1OC")
"True"
>>> category("COc1ccc(Nc2nccc(N3CCC(NC(=O)c4cc5ccccc5s4)C3)n2)cc1 (centres undefined)")
"True"
>>> category("Nc1cc(-c2cccc(Cl)c2)nn1-c1ccnc2cc(Cl)ccc12")
"False"
>>> category("CC(C)c1ccc2[nH]c(C(=O)NC3CCC(N4CCCc5ccc(C#N)cc5C4)CC3)cc2c1 (centres undefined)")
"False"
>>> category("CN1CCN(CC(=O)Nc2ccc(-c3cccc(-c4nc5ccc(F)cc5[nH]4)c3)cc2)CC1")
"True"

Request: Tell me the recorded outcome of this test for O=C(Nc1ccc(Cl)cc1)N[C@H]1CCN(Cc2ccc(OCCCN3CCCCC3)cc2)C1 .
Response: False

Request: For this compound, state the assay outcome: Cc1cccc(NC(=S)NC2CCN(CCCCCNC(=O)/C=C/c3ccc(Cl)c(Cl)c3)CC2)c1
Response: False

Request: Which outcome was assigned to COc1ccc2nccc([C@@H](O)CN3CCC(NCc4cc5c(F)ccc(F)c5[nH]4)CC3)c2c1 in this test?
Response: True

Request: What call does the record list for CC(=O)Nc1nc(C(=O)Nc2cccc(-c3cccc(-c4nc5ccccc5[nH]4)c3)c2)cs1 ?
Response: True

---

# measurement-description: inhibition of 3D7 malaria parasite growth – strain 3D7 (AID 2306);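 note: 0% = DMSO wells and 100% = chloroquine plus artemisinin control wells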
# measurement-setup: P. falciparum 3D7 erythrocytic growth, LDH absorbance, 72 h; at 2 µM; stronger effect = higher value
measured-quantity: growth inhibition (%)
Number in %, nothing else.

>>> reported_measurement("COc1cc(CCOc2c(C)nc(N)nc2N)cc(OC)c1OC")
93
>>> reported_measurement("CCC(C)c1ccc(O)c(NC(=O)c2cncc(Br)c2)c1 (stereo unspecified)")
100
>>> reported_measurement("NC1CCN(c2nc(NCCc3ccc(O)cc3)nc(NCc3ccccc3-c3ccccc3)n2)CC1")
99

Request: Which growth inhibition is reported for this molecule? CC(C)N1CCN(C(CN2CCN(CCCOc3ccc4ccccc4c3)CC2)c2ccc(F)cc2)CC1 (stereo unspecified)
Response: 101

Request: # lookup: growth inhibition of CCN(CC)CCCN(CCCN(CC)CC)c1cc(C)nc(Nc2ccc(Cl)cc2)n1
Response: 101

Request: // lookup growth inhibition for CC(C)CCN1CCC(Oc2ccc(NC(=O)c3ccco3)cc2Cl)CC1
Response: 95
